These entries and their values trace back to paper PMC6254164.

tested on: Giardia intestinalis WB strain; assay: In vitro antigiardial activity (parasite count, trypan blue); type: cell-based; conditions: Giardia duodenalis, 72 h, 72 hours at 36-37 °C, six determinations, read-out: Mean IC50 ± SD, Giardia intestinalis
property: pIC50
In simple prose, pIC50 is minus the logarithm base ten of a concentration in moles per litre.

Would you please look over these solved cases?
>>> value_observed("Cc1ncc([N+](=O)[O-])n1CCO [Metronidazole, metronidazole, reference compound]")
5.24
>>> value_observed("Cc1ncc([N+](=O)[O-])n1CCN [Compound 6, reference compound]")
4.73
>>> value_observed("Clc1ccc2c(N3CCNCC3)ccnc2c1 [Compound 9, 7-Chloro-4-(piperazine-1-yl) quinoline, reference compound]")
4.17

Give its pIC50 value. Item: O=C(O)/C=C/c1ccc([N+](=O)[O-])o1 [Compound 7, 5-Nitro-2-furylacrilic acid, reference compound]
4.05
